These measurements were taken from patent US20250163410.

Test system: VchCAST TnsB transposase (Tn6677; assayed with TnsA-TnsC and TniQ-Cascade) (Vibrio cholerae)
Test: cell_activity
Conditions: T-RL, no IPTG
Rule: binding signal below 2 fold vs WT gives t, anything at or above gives f.

polymer_sequence="TTTTGTGTTGAAACAACCATAAAGTGATATTTACGAATCAATTAAAATCATAGGCTTAATCGAAAAACAACCATATCTTGATATCGCATAAAACAACCATAAGTTGATATTTTGGTGAAAAGGATATTCCAACCTTCATAGTTTAGTAAGAA (double strand) [Left end hyperactive 4667]" class_name=f
polymer_sequence="ACATTTGTTGATACAACCATAAAATGATAATTACACCCATAAATTGATAATTATCACACCCATAAATTGATATTGCCTCTGGCGCTCTGTACCCCGCTCGGTCCTCCCGCGCATCGCGCACCGACAC (double strand) [Right end hyperactive 2698]" class_name=t
polymer_sequence="ACATTTGTTGATACAACCATAAAATGATAATTACACCCATAAATTGATAATTATCACACCCATAAATTGATATTGCCTCTCAGACCACATAGCTGCCATGTCCTGATCGGACGGACCGCACCGACAC (double strand) [Right end hyperactive 2701]" class_name=t
polymer_sequence="ACATTTGTTGATACAACCATAAAATGATAATTACACCCATAAATTGATAATTATCACACCCATAAATTGATATTGCCTCTCCGACCCGGAAGAGGGCGCCTAGAATTGGGAGTGGTCGCACCGACAC (double strand) [Right end hyperactive 2700]" class_name=t
polymer_sequence="AATGTTGTTGAAACAACCATAAAGTGATAACAACGAATCAATTAAAATCATAGGCTTAATCGAAAAACAACCATATCTTGATATCGCATAAAACAACCATAAGTTGATATTTTGGTGAAAAGGATATTCCAACCTTCATAGTTTAGTAAGAA (double strand) [Left end hyperactive 4668]" class_name=t
polymer_sequence="ACATTTGTTGATACAACCATAAAATGATAATTACACCCATAAATTGATAATTATCACACCCATAAATTGATATTGCCTCTGATCATATTTAATAATTAATTTATATATTTAAGTCAGGCACCGACAC (double strand) [Right end hyperactive 2691]" class_name=f
polymer_sequence="ACATTTGTTGATACAACCATAAAATGATAATTACACCCATAAATTGATAATTATCACACCCATAAATTGATATTGCCTCTGATCAAATTGTGAGCGGATAACAATTTAGTCAGACCAGCACCGACAC (double strand) [Right end hyperactive 2695]" class_name=t

====

System: VchCAST TnsB transposase (Tn6677; assayed with TnsA-TnsC and TniQ-Cascade) (Vibrio cholerae)
Assay: cell_activity
Conditions: T-RL, no IPTG
Form field: binding signal (one value per entry).
OBSERVABLE: binding signal (fold vs WT)

polymer_sequence="ACATTTGTTGATACAACCATAAAATGATAATTACACCCATAAATTGATAATTATCACACCCATAAATTGATATTGCCTCTGTACGATCCAGTGATCTCCAAGACGCTGCAAGAGTCCGCACCGACAC (double strand) [Right end hyperactive 2702]" observable="binding signal" units_symbol="fold vs WT" result_number=1.71
polymer_sequence="TTTTGTGTTGAAACAACCATAAAGTGATAACAACGAATCAATTAAAATCATAGGCTTAATCGAAAAACAACCATATCTTGATATCGCACAAAACAACCATAAGTTGATATTTTGGTGAAAAGGATATTCCAACCTTCATAGTTTAGTAAGAA (double strand) [Left end hyperactive 4672]" observable="binding signal" units_symbol="fold vs WT" result_number=1.54
polymer_sequence="ACATTTGTTGATACAACCATAAAATGATAATTACACCCATAAATTGATAATTATCACACCCATAAATTGATATTGCCTCTGATCATAATTGTTATCCGCTCACAATTCCAGTCAGACGCACCGACAC (double strand) [Right end hyperactive 2694]" observable="binding signal" units_symbol="fold vs WT" result_number=1.89
polymer_sequence="TTTTGTGTTGAAACAACCATAAAGTGATAACAACGAATCAATTAAAATCATAGGCTTAATCGAAAAACAACCATATATTGATATCTCATAAAACAACCATAAGTTGATATTTTGGTGAAAAGGATATTCCAACCTTCATAGTTTAGTAAGAA (double strand) [Left end hyperactive 4669]" observable="binding signal" units_symbol="fold vs WT" result_number=1.69
